I'd appreciate it if you could supply MIC values for the items below.
# System: E. coli DH5α
# protocol.notes: Antibacterial activity: MIC and growth curve against E. coli DH5α in 96-well plate
# Format: cell-based
# particulars: minimal inhibitory concentration against E. coli DH5α; 96-well plate, 5×10^5 CFU/mL, 37° C., judged after 8 h
Numbers only, in µg/mL.

Answered cases to consult:
PRT1421 (ATQSCNDLCEHFCVPNPDQPGSYSCMCETGYRLAADQHRCE; listed as Homo sapiens)
12.5
PRT163 (EYNECLSAPCLNAATCRDLVNGYECVCLAEYKGTHCE; listed as Homo sapiens)
12.5
PRT1004 (LRPSCADSPCRNRATCQDSPQGPRCLCPTGYTGGSCQ; listed as Homo sapiens)
50
PRT591 (CACDPHNSLSPQCNQFTGQCPCREGFGGLMCSAAAIRQCPDRTYGDVATGCRA; listed as Homo sapiens)
25
PRT444 (GISECSSQPCQNGGTCVEGVNQYRCICPPGRTGNRCQ; listed as Homo sapiens)
25

Give MIC for each listed item.
1. PRT1101 (MKDPCFSNPCQGSATCVNTPGERSFLCKCPPGYSGTICE; listed as Homo sapiens)
2. PRT84 (EAGRCVPGVCRNGGTCTDAPNGGFRCQCPAGGAFEGPRCE; listed as Homo sapiens)
3. PRT936 (VLAPCSPNPCENAAVCKESPNFESYTCLCAPGWQGQRCT; listed as Homo sapiens)
4. PRT557 (CGCSPAGTLPEGCDEAGRCLCQPEFAGPHCDRCRPGYHGFPNCQA; listed as Homo sapiens)

(A)
25
12.5
25
12.5

Batch request: MIC for each of the following substances.
1. PRT586 (CPCPEGPGSQRHFATSCHQDEYSQQIVCHCRAGYTGLRCEACAPGHFGDPSRPGGRCQL; listed as Homo sapiens)
2. PRT488 (DRCQLQTRCQNGGQWDGLKCQCPSTFYGSSCE; listed as Homo sapiens)
3. PRT1497 (KPVCEPGCGAHGTCHEPNKCQCQEGWHGRHCN; listed as Homo sapiens)
4. PRT515 (CHCDPIGSLNEVCVKDEKHARRGLAPGSCHCKTGFGGVSCDRCARGYTGYPDCKA; listed as Homo sapiens)
5. PRT939 (DMNECLSEPCKNGGTCSDYVNSYTCKCQAGFDGVHCE; listed as Homo sapiens)

(A)
12.5
50
50
25
50

The following substances each have a reported value; give each one's MIC.
1. PRT16 (EKSPCQPNPCHGAAPCRVLPEGGAQCECPLGREGTFCQ; listed as Homo sapiens)
2. PRT761 (RKDVCQAIDHGCEHICVNSDDSYTCECLEGFRLAEDGKRCR; listed as Homo sapiens)

(A)
12.5
50

* * *

# Tested on: Proteus vulgaris
# protocol.notes: MIC against Gram-negative bacteria: Proteus vulgaris
# Type: cell-based
# particulars: Proteus vulgaris; 5×10^5 CFU/mL; 10 h cultivation at 37° C.
# Procedure: 1. Gram-negative bacteria, such as E. coli BL21, Pseudomonas aeruginosa, Klebsiella pneumonia, Enterobacter cloacae, Aeromonas hydrophila, Citrobacter diversus, Moraxella catarrhalis, Proteus mirabilis, Proteus vulgaris, Serratia marcescens, etc were streaked on solid LB medium and cultured respectively. Then, typical clones were picked, inoculated into common liquid LB medium respectively, and cultured at 37° C. with shaking at 185 rpm until the McFarland specific turbidity was 0.5. […]
measurement.kind: MIC against P. vulgaris (µg/mL)
Answers are plain numbers, in µg/mL.

Example substances with recorded MIC against P. vulgaris:
PRT1493 (QQAECPGGCRNGGFCNERRICECPDGFHGPHCE; listed as Homo sapiens)
25
PRT1402 (DGCPDLCNGNGRCTLGQNSWQCVCQTGWRGPGCN; listed as Homo sapiens)
25
PRT1414 (EVDCMDPTCSGRGVCVRGECHCSVGWGGTNCE; listed as Homo sapiens)
12.5

Here is the next item to consider.
(Q) Give the reported value of MIC against P. vulgaris for this record: PRT1412 (RASCPVLCSGNGQYMKGRCLCHSGWKGAECD; listed as Homo sapiens)
(A) 50

* * *

# Tested on: Aeromonas hydrophila
# protocol.notes: MIC against Gram-negative bacteria: Aeromonas hydrophila
# Type: cell-based
# particulars: A. hydrophila; 10 h cultivation at 37° C.; 5×10^5 CFU/mL
measurement.kind: MIC (μg/mL) A. hydrophila

Batch request: MIC (μg/mL) A. hydrophila for each of the following substances.
1. PRT886 (RGPRCSQPGETCLNGGKCEAANGTEACVCGGAFVGPRCQ; listed as Homo sapiens)
2. PRT252 (TAACTNTSCSGHGECVETINNYTCKCDPGFSGLKCE; listed as Homo sapiens)
3. PRT158 (PGESHANDLECSGKGKCTTKPSEATFSCTCEEQYVGTFCE; listed as Homo sapiens)
4. PRT790 (HGPQCEQRCPCQNGGVCHHVTGECSCPSGWMGTVCG; listed as Homo sapiens)
5. PRT217 (DIDECTIPPYCHQRCVNTPGSFYCQCSPGFQLAANNYTCV; listed as Homo sapiens)
6. PRT840 (GSARCGSGGPGSCPVPQECVPQDGAAGAGLCRCPQGWAGPHCR; listed as Homo sapiens)
7. PRT264 (SGQCLCRSGFAGTACELCAPGAFGPHCQAC; listed as Homo sapiens)
8. PRT797 (WGPNCSVSCSCENGGSCSPEDGSCECAPGFRGPLCQ; listed as Homo sapiens)

(A)
["12.5 µg/mL", "12.5 µg/mL", "25 µg/mL", "25 µg/mL", "25 µg/mL", "25 µg/mL", "25 µg/mL", "12.5 µg/mL"]

* * *

Can you tell me MIC (μg/mL) P. vulgaris for the items I'm about to list?
# Test system: Proteus vulgaris
# protocol.notes: MIC against Gram-negative bacteria: Proteus vulgaris
# Type: cell-based
# particulars: Proteus vulgaris; 96-well plate, 5×10^5 CFU/mL, 37° C., 10 h
Answers are plain numbers, in µg/mL.

PRT1496 (EISKCPQPCRNGGKCIGKSKCKCSKGYQGDLCS; listed as Homo sapiens)
100

List the reported MIC (μg/mL) P. vulgaris of each substance below.
1. PRT39 (PVRDCSRNNGGCTRNFKCVSDRQVDSSGCVCPEELKPMKDGSGCY; listed as Homo sapiens)
2. PRT16 (EKSPCQPNPCHGAAPCRVLPEGGAQCECPLGREGTFCQ; listed as Homo sapiens)

(A)
[12.5, 25]

* * *

# Tested on: E. coli DH5α
# protocol.notes: Antibacterial activity: MIC and growth curve against E. coli DH5α in 96-well plate
# Type: cell-based
# particulars: minimal inhibitory concentration against E. coli DH5α; 96-well plate, 5×10^5 CFU/mL, 37° C., judged after 8 h
measurement.kind: MIC
Report the figure along with its unit, number first.

Some solved cases for reference:
PRT1180 (DIDYCEPNPCQNGAQCYNRASDYFCKCPEDYEGKNCS; listed as Homo sapiens)
50 mg/L
PRT81 (TCGPCNCDVSKGFDPDCNKTSGECHCKENHYRPPGSPTCL; listed as Homo sapiens)
12.5 mg/L
PRT768 (AIDYCSFGNHSCQHECVSTPGGPRCHCREGHDLQPDGRSCQ; listed as Homo sapiens)
12.5 mg/L
PRT445 (DVNECELYGQEGRPRLCMHACVNTPGSYRCTCPGGYRTLADGKSCE; listed as Homo sapiens)
50 mg/L
PRT891 (DVDECASTPCKNGAKCLDGPNTYTCVCTEGYTGTHCE; listed as Homo sapiens)
12.5 mg/L
PRT807 (YGDGCQLPCTCQNGADCHSITGGCTCAPGFMGEVCA; listed as Homo sapiens)
25 mg/L

Return reported MIC values for all items listed beneath this line.
1. PRT1030 (DVDECSENRCHPAATCYNTPGSFSCRCQPGYYGDGFQCI; listed as Homo sapiens)
2. PRT711 (GDNMCRVNNGGCSTLCLAIPGGRVCACADNQLLDENGTTCT; listed as Homo sapiens)
3. PRT1005 (LMDLCAQKPCPRNSHCLQTGPSFHCLCLQGWTGPLCN; listed as Homo sapiens)
4. PRT1454 (DVNECFYEELNACSGRELCANLEGSYWCVCHQEAPATSPRKLNLEWEDCP; listed as Homo sapiens)
5. PRT1143 (NLDECLSEPCLHDGVCIDGINHYTCDCKSGFFGTHCE; listed as Homo sapiens)

(A)
["25 mg/L", "25 mg/L", "50 mg/L", "25 mg/L", "12.5 mg/L"]

I would be grateful if you could provide MIC for each of the following entries.
1. PRT707 (GKTVCEDFCQNGGTCIVTAGNQPYCHCQPEYTGDRCQ; listed as Homo sapiens)
2. PRT36 (PVRDCSKDNGGCSKNFRCISDRKLDSTGCVCPSGLSPMKDSSGCY; listed as Homo sapiens)
3. PRT443 (DIDECENTDACQHECKNTFGSYQCICPPGYQLTHNGKTCQ; listed as Homo sapiens)
4. PRT527 (CPCPHTNSFATGCVVNGGDVRCSCKAGYTGTQCERCAPGYFGNPQKFGGSCQP; listed as Homo sapiens)
5. PRT919 (NIDDCPGNNCKNGGACVDGVNTYNCRCPPEWTGQYCT; listed as Homo sapiens)

(A)
["50 mg/L", "12.5 mg/L", "12.5 mg/L", "50 mg/L", "50 mg/L"]
